Provenance of the data: the supplement of paper PMC10724198

Test system: Saccharomyces cerevisiae
Experiment: protein stability index of tFT-peptide fusion (C-terminal peptide) (PSI (0-1 scale)); higher = more stable (slower turnover)
Conditions: genetic background: das1 deletion; temperature: 30 C
Consider the following sequences and their measured protein stability index readings.
Lab note: write the figure by itself, no unit.

>>> df
                             entry_sequence  readout_number
0      MRIRSDMSMMRW [COR1 C-terminal 12 aa]            0.71
1      KTVGKLVLEIPQ [ZTA1 C-terminal 12 aa]           0.689
2      LLRPRSPVQKAQ [KAR4 C-terminal 12 aa]            0.69
3  VQCVCFNVEMRL [YIL046W-A C-terminal 12 aa]           0.662
4   PVTPAVSKRYQP [YER084W C-terminal 12 aa]           0.715
5     ELKEGRTFLGRS [APQ13 C-terminal 12 aa]           0.703

Please look at the following sequence next.
Task: Given the entry NRLKGQNSHQQR [RGS2 C-terminal 12 aa] , report its measured protein stability index.
Result: 0.707
